B1: DUSP5 (parent)
chain: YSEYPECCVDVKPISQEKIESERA

- Variants of: B1
- Test Method Notes: protein stability index of a GFP-peptide fusion (GPS, HEK-293T) (PSI 1-6); higher = more stable;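 further: lentivirally expressed fusions sorted by FACS into six bins by GFP to DsRed ratio, PSI derived from sequencing read proportions per bin multiplied by bin number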
- Condition Context: c terminus: a fixed tail appended
Entries annotated with measured protein stability index
No unit in the answer, please; the number alone is enough.

Known protein stability index results, listed for orientation:
Item Sequence	protein stability index
YSEYPECCVDVKWISQEKIESERA [P13W]	3.17
YSEMPECCVDVKPISQEKIESERA [Y4M]	4.6
YSEYPECCVDVKPISQEKIEAERA [S21A]	4.36
YSEYPECRVDVKPISQEKIESERA [C8R]	5.24
YSEYPECCVDVKPISQEKIASERA [E20A]	4.89

Query string: What value of measured protein stability index is listed for YSEYPECCVDVKSISQEKIESERA [P13S] ?
Result string: 3.33

Query string: Which measured protein stability index value corresponds to YSEYPECCVDVKPISQEKIESMRA [E22M] ?
Result string: 3.65

Query string: Return reported protein stability index; argument: YSEYPECCQDVKPISQEKIESERA [V9Q]
Result string: 4.47

Query string: What value of protein stability index has been reported for the following variant? SSEYPECCVDVKPISQEKIESERA [Y1S]
Result string: 5.75

Query string: Find the recorded protein stability index belonging to YSEYPECCVDVKPISMEKIESERA [Q16M] and report it.
Result string: 4.3

Query string: Quick one: protein stability index of YSEYPECCVDVKYISQEKIESERA [P13Y] ?
Result string: 3.29
